Biological target: T1, human β2-appendage (700–937) used for ITC (human, UniProt P63010 700-937)
T1 construct: AP2 β2-adaptin appendage domain, human, residues 700-937; also called wild-type β2-appendage; β-appendage
T1 sequence (looked up): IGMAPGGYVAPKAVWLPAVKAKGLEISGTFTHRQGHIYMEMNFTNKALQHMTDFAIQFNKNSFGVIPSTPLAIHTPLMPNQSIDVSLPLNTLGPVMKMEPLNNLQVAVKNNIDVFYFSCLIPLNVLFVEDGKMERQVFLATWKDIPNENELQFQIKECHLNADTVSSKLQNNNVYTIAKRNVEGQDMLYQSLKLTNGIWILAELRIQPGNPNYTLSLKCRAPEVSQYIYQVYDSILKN
Test: ITC; VP-ITC; 100 mM HEPES, 50 mM NaCl, 2 mM DTT pH 7.4 at 10 °C; peptides or proteins injected from the syringe into the cell
Details: both partners purified
MEASURE: pKd
Scale: pKd equals -log10([C]), with [C] in mol/L.

Lab book: pKd of SFGDGFADFSTL (peptide from Eps15; also called Eps15 peptide; source: synthetic peptide, bought: Institute of Biomolecular Sciences (University of Southampton)) [Eps15 P-short peptide] noted as 4.34
